- protocol-summary: binders of probe aFGF2 on microarray, primary screen, stem cell growth factor project, biochemical, small-molecule microarray, fluorescence 635/667 (AID 1067);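 also: measures binding of biotinylated aFGF2 protein to printed compounds on slides; z-score merges feature fluorescence and signal-to-noise across triplicate slides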
- recorded-conditions: higher = more signal
# cutoff 0.06 applies to composite z-score; >= gives 1 (yes), < gives 0 (no)

Previously resolved entries follow.
- compound: "CC(C)N1C(=O)[C@@]2(Cc3ccccc31)c1ccccc1C(=O)N(C1CCCCC1)[C@H]2c1ccc(CO)cc1"
  group: "0 (no)"
- compound: "O=C1O[C@@H](c2ccccc2)[C@@H](c2ccccc2)N2[C@@H](c3ccc(OCCO)cc3)[C@]3(C(=O)Nc4ccccc43)[C@@H](C(=O)NC[C@H](O)c3ccccc3)[C@H]12"
  group: "0 (no)"
- compound: "CN1C(=O)C2C=CC(C(O)Cc3ccccc3)N(Nc3ccccc3)C2C1=O (configuration not stated)"
  group: "0 (no)"
- compound: "CC(C)(C)OC(=O)CC[C@@]1(C(=O)NCCN2CCOCC2)N=C(c2ccc(OCCCO)cc2)O[C@@H]1c1ccccc1N=[N+]=[N-]"
  group: "1 (yes)"
- compound: "CN1C(=O)C2C=CC(C(O)c3cccs3)N(Nc3ccccc3)C2C1=O (configuration not stated)"
  group: "0 (no)"
- compound: "COC(=O)[C@@]1(Cc2ccc(OC)cc2)[C@H]2c3cc(C(=O)N(C)C)n(CCN4CNCC4=O)c3C[C@H]2CN1C(=O)c1ccccc1"
  group: "0 (no)"
- compound: "CC(C)N1C(=O)c2ccccc2[C@](C)(C(=O)NCc2ccccc2)[C@@H]1c1ccc(CO)cc1"
  group: "0 (no)"
- compound: "O=C(NCc1ccccc1)[C@@]1(Cc2ccccc2)N=C(c2ccc(OCCCO)cc2)O[C@H]1c1ccccc1"
  group: "0 (no)"
- compound: "O=C1NC(=O)C2C1C=CC(C(O)C(c1ccccc1)c1ccccc1)N2Nc1ccc(Cl)cc1Cl (configuration not stated)"
  group: "1 (yes)"
- compound: "CC1CC/C=C\\[C@H]2OC34C=CCN(c5ccc(Cl)cc5)C(=O)[C@H]3N(CCO)C(=O)[C@]4(C)C2C(=O)O1 (some centres not stated)"
  group: "0 (no)"

Is reported composite z-score greater than or equal to 0.06 here: COc1ccc([Si](C)(C)[C@H]2[C@H](CCn3cc([C@H](O)c4ccccc4)nn3)O[C@@]3(C(=O)N(Cc4cccc(N5CCOC5=O)c4)c4ccccc43)[C@@H]2C)cc1
0 (no)

Is reported composite z-score greater than or equal to 0.06 here: C[C@@H]1ON(c2cccc(C(=O)OC(C)(C)C)c2)[C@H](c2ccc(Br)cc2)[C@H]1C(=O)N1C(=O)OC[C@H]1Cc1ccccc1
0 (no)

Is reported composite z-score greater than or equal to 0.06 here: CC(C)(C)OC(=O)CC[C@@]12N=C(c3ccc(OCCCO)cc3)O[C@@H]1c1ccccc1N(CCS(=O)(=O)c1ccccc1)C2=O
0 (no)

Is reported composite z-score greater than or equal to 0.06 here: CCCCC=C[C@@H](NC(=O)Oc1cccc(C(F)(F)F)c1)c1ccccc1
1 (yes)

Is reported composite z-score greater than or equal to 0.06 here: COCCOC(=O)N1C(=O)[C@@]2(c3cc(C#CC4=CCCCC4)ccc31)[C@H](C(=O)Nc1nc3ccccc3s1)[C@H]1C(=O)O[C@H](c3ccccc3)[C@H](c3ccccc3)N1[C@@H]2c1ccccc1OCCO
1 (yes)

Is reported composite z-score greater than or equal to 0.06 here: COCCOC(=O)N1C(=O)[C@@]2(c3cc(C#Cc4ccc(OC)cc4)ccc31)[C@H](C(N)=O)[C@H]1C(=O)O[C@H](c3ccccc3)[C@H](c3ccccc3)N1[C@@H]2c1ccccc1OCCO
1 (yes)

Is reported composite z-score greater than or equal to 0.06 here: CCCCC(=C=CC[C@@H](O)c1ccccc1OCCO)CCO
0 (no)
